These data points were gathered from paper PMC5557574.

Experiment: Pharmacokinetics in septic shock patients, two-compartment population pharmacokinetic model
Type: in vivo, human
Conditions: human, in vivo, intravenous, 2.5 ng/kg.min, N=17, modelled, mean (SD), SD, read-out: Clearance (total systemic) (converted)
Positions of bridges follow the written chain, without caps; N, C: chain ends. Non-standard residues stand in square brackets, D forms with d. Residues, ends and D or L forms follow the SMILES beside them. Orn(iPr) = CC(C)NCCC[C@H](N)C(=O)O; Aad = N[C@@H](CCCC(=O)O)C(=O)O
assayReadout: clearance (mL/min)
Please reply with the bare figure in mL/min and do not write the unit itself.

Recorded clearance for CC[C@H](C)[C@@H]1NC(=O)[C@H](Cc2ccccc2)NC(=O)[C@@H](N)CSSC[C@@H](C(=O)N2CCC[C@H]2C(=O)N[C@@H](CCCNC(C)C)C(=O)NCC(N)=O)NC(=O)[C@H](CC(N)=O)NC(=O)[C@H](CCCC(N)=O)NC1=O [selepressin] (H-CFI[Aad](NH2)NCP[Orn(iPr)]G-NH2; disulfide 1-6) , please?
218
